test: Metabolic stability in human liver microsomes assessed as compound remaining at 1 uM after 30 mins; format: ADME, Microsome; settings: read-out: Stability
quantityMeasured: remaining at 0.5 h, 1 µM (%)

compound: CC[C@@H]1C(=O)N(C)c2cnc(-n3ccnc3-c3ccc(F)cc3)nc2N1c1ccnn1C
readoutUnits: %
remaining at 0.5 h, 1 µM: 74

compound: CC[C@@H]1C(=O)N(C)c2cnc(-n3ccnc3-c3ccccc3)nc2N1[C@H]1CCOC1
readoutUnits: %
remaining at 0.5 h, 1 µM: 17

[P] CN1C(=O)C(CC(F)(F)F)N(CCC(F)(F)F)c2nc(-n3ccnc3-c3ccc(F)cc3)ncc21 (racemic)
[Q] CC[C@@H]1C(=O)N(C)c2cnc(-c3c[nH]nc3-c3nccs3)nc2N1[C@H]1CCOC1
[R] CC(C)N1c2nc(-n3ccnc3-c3ccc(F)cc3)ncc2N(C)C(=O)C12CCC2
[S] CC[C@@H]1C(=O)N(C)c2cnc(-c3cn[nH]c3-c3nccs3)nc2N1c1cn[nH]c1
[T] CC[C@@H]1C(=O)N(C)c2cnc(-n3ccnc3-c3ccccc3)nc2N1[C@@H]1CCOC1
# rank_down: sort by remaining at 0.5 h, 1 µM, max first Give your ranking as a list of the labels in the requested order.
S, Q, P, T, R
(S: 84%, Q: 51%, P: 15%, T: 10%, R: 4%)

[1] CC[C@@H]1C(=O)N(C)c2cnc(-n3ccnc3-c3ccc(F)cc3)nc2N1[C@H]1CCOC1
[2] CC[C@@H]1C(=O)N(C)c2cnc(-c3c[nH]nc3-c3nccs3)nc2N1C(C)C
Please let me know which one, 1 or 2 , has a lower measured remaining at 0.5 h, 1 µM value. The response must carry the label of the picked entry.
2
